biological target: T1, recombinant human ROR1 extracellular domain (human, UniProt Q01973 30-406); assay: ELISA, soluble Fab on coated huROR1-ECD
T1 construct: biotinylated for the filter lifts; also called huROR1-ECD; human ROR1-ECD
T1 sequence (Q01973 30-406 limits assumed): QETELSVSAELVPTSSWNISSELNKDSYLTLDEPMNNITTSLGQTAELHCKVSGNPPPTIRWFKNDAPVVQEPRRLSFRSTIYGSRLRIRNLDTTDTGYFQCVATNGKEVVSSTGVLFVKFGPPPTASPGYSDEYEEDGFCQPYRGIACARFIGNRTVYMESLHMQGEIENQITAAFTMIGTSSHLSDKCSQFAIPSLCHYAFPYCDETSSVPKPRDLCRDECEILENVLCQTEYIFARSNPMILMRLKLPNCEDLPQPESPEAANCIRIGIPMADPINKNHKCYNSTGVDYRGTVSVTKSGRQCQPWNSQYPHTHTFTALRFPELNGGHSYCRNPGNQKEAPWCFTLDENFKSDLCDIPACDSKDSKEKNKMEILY
Below, each of the binders is paired with its reported Kd value.
API: value field is a number in nM; no unit string.

Report Kd for Ab1 Fab variant L1 S30P (Fab, V domains shown, Fab) VH: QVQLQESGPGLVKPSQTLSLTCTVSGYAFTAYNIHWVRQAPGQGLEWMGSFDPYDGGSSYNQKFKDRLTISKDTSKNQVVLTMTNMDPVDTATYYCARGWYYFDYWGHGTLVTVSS VL: DIVMTQTPLSLPVTPGEPASISCRASKPISKYLAWYQQKPGQAPRLLIYSGSTLQSGIPPRFSGSGYGTDFTLTINNIESEDAAYYFCQQHDESPYTFGEGTKVEIK 16

Consider now this further binder.
Report Kd for Ab1 Fab variant H1 A33M (Fab, V domains shown, Fab) VH: QVQLQESGPGLVKPSQTLSLTCTVSGYAFTMYNIHWVRQAPGQGLEWMGSFDPYDGGSSYNQKFKDRLTISKDTSKNQVVLTMTNMDPVDTATYYCARGWYYFDYWGHGTLVTVSS VL: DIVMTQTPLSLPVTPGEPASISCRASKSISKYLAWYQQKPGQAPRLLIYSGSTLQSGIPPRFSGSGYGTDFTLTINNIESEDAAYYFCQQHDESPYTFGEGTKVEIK 15

Attribution: patent US20230021388A1
